protocolDetails: Pharmacokinetics in female BALB/c nude mice bearing A375 xenografts, 1 day dosing (PK and PD study): plasma, tumor and brain concentrations, AUC
Type: in vivo
cond: mouse, plasma, po, 1.5 mg/kg, 1.5 mg/kg p.o. BID × 1 day; post 1st dose; 8 h; read-out: Mean Concentration in Plasma ± SEM
testReadout: concentration at 8 h (ng/mL)
Output spec: scalar in ng/mL, unitless text.

Dear colleague, I am looking for the recorded concentration at 8 h of the following compound: CCN(C)S(=O)(=O)Nc1ccc(F)c(Oc2ccc3ncn([C@H]4COC5(CCN(C6CC7(C6)CN(c6cc8c(cc6F)c(N6CCC(=O)NC6=O)nn8C)C7)CC5)C4)c(=O)c3c2)c1C#N
318

Numbers sourced from patent US20260297060A1.
